System: DIPGX7 (H3.3 K27M diffuse intrinsic pontine glioma line)
Test: growth inhibition (% activity, log2 RLU normalised to DMSO / staurosporine); higher = more growth inhibition
Settings: 33 µM
Measurement type: growth inhibition
Please answer using the number first and the unit second.

Completed entries (count: 5):
INSERT INTO measurements (compound, target_of_assay, measurement_type, value_observed) VALUES
  ('Cc1ccc(C(=O)c2cc(O)c(O)c([N+](=O)[O-])c2)cc1', 'DIPGX7', 'growth inhibition', '-1.81%'),
  ('CCOc1nc2cccc(C(=O)O)c2n1Cc1ccc(-c2ccccc2-c2noc(=O)[nH]2)cc1', 'DIPGX7', 'growth inhibition', '0.841%'),
  ('c1cnc2cc3c(cc2n1)[C@@H]1CNC[C@H]3C1', 'DIPGX7', 'growth inhibition', '1.78%'),
  ('CCN(CC)C(=O)C1(c2ccccc2)CC1CN (stereo unspecified)', 'DIPGX7', 'growth inhibition', '0.852%'),
  ('CC(C)CN(C[C@@H](O)[C@H](Cc1ccccc1)NC(=O)O[C@H]1CCOC1)S(=O)(=O)c1ccc(N)cc1', 'DIPGX7', 'growth inhibition', '-0.0284%');

Alright, here's another compound for you.
Notebook entry, DIPGX7 assay: growth inhibition of NC(CO)(CO)CO = ? 0.549%

====

System: DIPGX7
Assay: growth inhibition (% activity, log2 RLU normalised to DMSO / staurosporine); higher = more growth inhibition
Details: 33 µM
For each entry below, report its growth inhibition value.
One number for each entry, in %.

INSERT INTO measurements (compound, value_observed) VALUES
  ('Nc1nc(O)c2ncn(CCC(CO)CO)c2n1', 0.291),
  ('COc1cnc(NS(=O)(=O)c2ccc(N)cc2)nc1', -0.856),
  ('N[C@@H]1CN(c2c(F)cc3c(=O)c(C(=O)O)cn([C@@H]4C[C@@H]4F)c3c2Cl)CC12CC2', 1.79);

Fill in growth inhibition for each of the 4 compounds listed.
1. CCOC(=O)C1=C(C)NC(C)=C(C(=O)OC)C1c1cccc(Cl)c1Cl (centres undefined)
2. Cc1ccc(S(=O)(=O)NC(=O)NN2CC3CCCC3C2)cc1 (centres undefined)
3. O=C1c2cccc3c2[C@H](CCC3)CN1[C@@H]1CN2CCC1CC2
4. N=C(N)NS(=O)(=O)c1ccc(N)cc1

1: 2.82; 2: 1.73; 3: -0.559; 4: 1.86

Fill in growth inhibition for each of the 4 compounds listed.
1. Nc1ncn([C@H]2C[C@H](O)[C@@H](CO)O2)c(=O)n1
2. CCCCN(CCCC)CCCOC(=O)c1ccc(N)cc1
3. Clc1ccc(C(Cn2ccnc2)OCc2c(Cl)cccc2Cl)c(Cl)c1 (centres undefined)
4. CCOC(=O)C1=C[C@@H](OC(CC)CC)[C@H](NC(C)=O)[C@@H](N)C1

1: 3.51; 2: 5.01; 3: 3.97; 4: -0.6

====

System: DIPGX29 (H3.3 K27M diffuse intrinsic pontine glioma line)
Experiment: growth inhibition (% activity, log2 RLU normalised to DMSO / staurosporine); higher = more growth inhibition
Details: 33 µM
Measurement type: growth inhibition (%)
One number for each entry, in %.

Completed entries (count: 3):
INSERT INTO assay_data (compound, measurement_type, uom, value_observed) VALUES
  ('C[C@](N)(Cc1ccc(O)c(O)c1)C(=O)O', 'growth inhibition', '%', 0.0946),
  ('Clc1ccc(CCC(Cn2ccnc2)Sc2c(Cl)cccc2Cl)cc1 (stereo unspecified)', 'growth inhibition', '%', 5.06),
  ('c1ccc2c(c1)CCCC2C1=NCCN1 (stereo unspecified)', 'growth inhibition', '%', 1.99);

Fill in growth inhibition for each of the 3 compounds listed.
1. CN1CCC(=C2c3ccccc3CC(=O)c3sccc32)CC1
2. Cc1nc(-c2ccc(OCC(C)C)c(C#N)c2)sc1C(=O)O
3. CC(C(=O)O)c1ccc(-c2ccccc2)c(F)c1 (stereo unspecified)

-0.432
0.052
0.779

Fill in growth inhibition for each of the 2 compounds listed.
1. CC(C)Cn1cnc2c(N)nc3ccccc3c21
2. CCC[C@@H]1C[C@@H](C(=O)N[C@@H]([C@H]2O[C@H](SC)[C@H](OP(=O)(O)O)[C@@H](O)[C@H]2O)[C@H](C)Cl)N(C)C1

[0.9, -4.37]

Fill in growth inhibition for each of the 3 compounds listed.
1. COc1ccc2cc1Oc1ccc(cc1)C[C@H]1c3c(cc4c(c3Oc3cc5c(cc3OC)CCN(C)[C@@H]5C2)OCO4)CCN1C
2. O=c1c(-c2ccc(O)cc2)coc2cc(O)cc(O)c12
3. NCCCCCC(=O)O

[1.78, 0.891, 0.867]
